Entries and their measured log10(hepatocyte CLint) follow.
- ASSAY_NAME: Rat hepatocyte intrinsic clearance
- Format: in vitro ADME
- SETUP_CONDITIONS: hepatocytes
Values are log10 of hepatocyte CLint in µL/min/1e6 cells.

[[record]]
mol_smiles = "COc1ccc(Nc2ccnc3cc(-c4cnc(N5CCN(C)CC5)nc4)ccc23)cc1Cl"
measurement_kind = "log10(hepatocyte CLint)"
value_reported = 1.65

[[record]]
mol_smiles = "Cc1ccc(Nc2ccnc3cc(-c4ccc(S(=O)(=O)N5CCN(C)CC5)cc4)ccc23)cn1"
measurement_kind = "log10(hepatocyte CLint)"
value_reported = 1.69

[[record]]
mol_smiles = "CC(C)(C)OC(=O)Nc1ccc2c(Nc3ccc(OCc4cccc(F)c4)c(Cl)c3)ccnc2c1"
measurement_kind = "log10(hepatocyte CLint)"
value_reported = 1.68

[[record]]
mol_smiles = "CN1CCN(S(=O)(=O)c2ccc(-c3ccc4c(Nc5ccc(OC(F)(F)F)cc5)ccnc4c3)cc2)CC1"
measurement_kind = "log10(hepatocyte CLint)"
value_reported = 1.90

[[record]]
mol_smiles = "CN1CCN(c2ncc(-c3ccc4c(Nc5ccc(OCc6cccc(F)c6)c(Cl)c5)ccnc4c3)cn2)CC1"
measurement_kind = "log10(hepatocyte CLint)"
value_reported = 1.38


Would you mind telling me what log10(hepatocyte CLint) value was observed for "CN1CCN(S(=O)(=O)c2ccc(-c3ccc4c(Nc5ccc(C(F)(F)F)nc5)ccnc4c3)cc2)CC1" ?
2.41

How about "CN1CCN(c2nsnc2-c2ccc3c(Nc4ccc(OCc5cccc(F)c5)c(Cl)c4)ccnc3c2)CC1" ?
1.54

---

- ASSAY_NAME: Aqueous solubility
- Format: physicochemical
Mark not met for solubility values under 4 µM, and met for everything at or above.

These solved cases illustrate the format of a correct answer.
[[record]]
compound = "COc1cnc(Nc2ccnc3cc(-c4ccc(S(=O)(=O)N5CCN(C)CC5)cc4)ccc23)cn1 [Compound 3]"
category_label = "not met"

[[record]]
compound = "Fc1cccc(COc2ccc(Nc3ccnc4cc(-c5cn[nH]c5)ccc34)cc2Cl)c1 [Compound 16]"
category_label = "met"

[[record]]
compound = "Cc1cc(Nc2ccc3c(Nc4cnccn4)ccnc3c2)sn1 [NEU-2148]"
category_label = "not met"


Hi, just wondering whether COc1ncc(Nc2ccnc3cc(-c4ccc(S(=O)(=O)N5CCN(C)CC5)cc4)ccc23)cn1 [Compound 2] shows solubility of 4 µM or higher.
met

How about CN1CCN(S(=O)(=O)c2ccc(-c3ccc4c(Nc5ccc6[nH]nnc6c5)ccnc4c3)cc2)CC1 [NEU-1018] ?
not met

How about COc1ccc(Nc2ccnc3cc(-c4ccc(S(=O)(=O)N5CCN(C)CC5)cc4)ccc23)cc1Cl [Compound 6] ?
met

How about Cc1cnc(Nc2ccc3c(Nc4cnccn4)ccnc3c2)s1 [NEU-2149] ?
not met

---

- System: T. cruzi amastigote (Tulahuen strain expressing β-galactosidase)
- ASSAY_NAME: Intracellular T. cruzi assay in 3T3 cells (beta-galactosidase, 96 h)
- Format: cell-based, Trypanosoma cruzi
- SETUP_CONDITIONS: Trypanosoma cruzi, TULAHUEN, NIH3T3, 96 h, read-out: T. cruzi amastigote EC50
MEASUREMENT_KIND: EC50 (nM)
# value in nM; strip the unit string

Solved cases below.
[[record]]
compound = "CN1CCN(S(=O)(=O)c2ccc(-c3ccc4c(Nc5ccc(OC(F)(F)F)cc5)ccnc4c3)cc2)CC1 [Compound 10]"
value_reported = 1400

[[record]]
compound = "Fc1cccc(COc2ccc(Nc3ccnc4cc(-c5cn[nH]c5)ccc34)cc2Cl)c1 [Compound 16]"
value_reported = 920

[[record]]
compound = "Cc1ccc(Nc2ccnc3cc(-c4ccc(S(=O)(=O)N5CCN(C)CC5)cc4)ccc23)cn1 [Compound 11]"
value_reported = 9900


Would you mind telling me what EC50 value was observed for COc1ccc(Nc2ccnc3cc(-c4ccc(S(=O)(=O)N5CCN(C)CC5)cc4)ccc23)cc1 [Compound 9] ?
1900

How about COc1ccc(Nc2ccnc3cc(-c4ccc(S(=O)(=O)N5CCN(C)CC5)cc4)ccc23)cc1Cl [Compound 6] ?
3800

How about CN1CCN(c2nsnc2-c2ccc3c(Nc4ccc(OCc5cccc(F)c5)c(Cl)c4)ccnc3c2)CC1 [Compound 15] ?
4700
